# assay-target: Long-chain-fatty-acid--AMP ligase FadD32 (Mycobacterium tuberculosis (strain ATCC 25618 / H37Rv))
# Sequence (O53580 whole entry): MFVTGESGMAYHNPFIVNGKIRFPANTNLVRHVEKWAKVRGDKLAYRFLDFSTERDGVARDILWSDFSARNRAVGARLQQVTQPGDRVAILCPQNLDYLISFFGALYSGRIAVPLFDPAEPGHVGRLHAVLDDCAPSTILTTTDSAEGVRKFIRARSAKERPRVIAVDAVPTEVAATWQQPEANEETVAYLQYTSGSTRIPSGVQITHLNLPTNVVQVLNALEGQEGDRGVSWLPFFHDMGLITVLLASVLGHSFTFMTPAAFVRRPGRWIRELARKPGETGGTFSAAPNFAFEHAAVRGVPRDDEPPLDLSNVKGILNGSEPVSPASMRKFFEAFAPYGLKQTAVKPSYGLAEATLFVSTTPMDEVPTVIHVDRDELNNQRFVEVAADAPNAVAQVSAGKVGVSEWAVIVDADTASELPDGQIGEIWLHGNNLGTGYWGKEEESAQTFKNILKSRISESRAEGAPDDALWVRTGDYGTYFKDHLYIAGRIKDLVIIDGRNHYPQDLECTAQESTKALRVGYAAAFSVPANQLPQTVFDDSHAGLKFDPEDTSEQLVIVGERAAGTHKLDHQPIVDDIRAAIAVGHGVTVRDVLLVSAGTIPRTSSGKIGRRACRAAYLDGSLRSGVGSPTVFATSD
# test-description: Inhibition of Mycobacterium tuberculosis H37Rv FAAL32 expressed in Escherichia coli BL21(DE3) cells incubated for 2 hrs in presence of [C14] fatty acid by SDS-PAGE analysis
# condition-description: read-out: Ki(app)
property-name: pKi
Schema: pKi number; meaning minus log10 of the concentration expressed in molar units.

Note to self: pKi recorded for CCCCCCCCCCCCOP(=O)(O)OC[C@H]1O[C@@H](n2cnc3c(N)ncnc32)[C@H](O)[C@@H]1O was 6.96

====

# Tested on: Mycobacterium tuberculosis
# test-description: Antimycobacterial activity against isoniazid/rifampicin/ethambutol/pyrazinamide/streptomycin/kanamycin/para-aminosalicylic acid/prothionamide multidrug-resistant Mycobacterium tuberculosis assessed as inhibition of bacterial growth under 7H9 medium condition after 7 to 14 days in presence of tylo-xapol by broth microdilution method
# Type: functional
# condition-description: time 7-14 day
property-name: MIC (µM)
Kindly provide the numeric value in µM only, without the unit symbol.

Please review the entries below; each comes with its answer.
molecular-string: CCCCCCCCCOCC(=O)NS(=O)(=O)OC[C@H]1O[C@@H](n2cnc3c(N)ncnc32)[C@H](O)[C@@H]1O
MIC [µM]: 12.5

molecular-string: [N-]=[N+]=NCCCCCCCCCCCC(=O)NS(=O)(=O)OC[C@H]1O[C@@H](n2cnc3c(N)ncnc32)[C@H](O)[C@@H]1O
MIC [µM]: 6.25

molecular-string: CCCCCCCCCCCC(=O)NS(=O)(=O)OC[C@H]1O[C@@H](n2cnc3c(N)ncnc32)[C@H](O)[C@@H]1O
MIC [µM]: 12.5

molecular-string: NNC(=O)c1ccncc1
MIC [µM]: 2

molecular-string: C=CCCCCCCCCC(=O)NS(=O)(=O)OC[C@H]1O[C@@H](n2cnc3c(N)ncnc32)[C@H](O)[C@@H]1O
MIC [µM]: 6.25

Record for CCCCCCCCCCCCCC(=O)NS(=O)(=O)OC[C@H]1O[C@@H](n2cnc3c(N)ncnc32)[C@H](O)[C@@H]1O under target or system Mycobacterium tuberculosis: MIC reported as 12.5

Record for Nc1ncnc2c1ncn2[C@@H]1O[C@H](COS(=O)(=O)NC(=O)CCCCCCCCCCOc2ccccc2)[C@@H](O)[C@H]1O under target or system Mycobacterium tuberculosis: MIC reported as 12.5
